Just for reference, patent US20230304058A1 is where these values come from.

system: TLR3, TLR7, TLR8 and RIG-1; test: Intracellular immunogenicity of capped mRNA by RNA immunoprecipitation and quantitative PCR; format: cell-based; conditions: relative to ARCA; Human-derived PBMC cells, 5 μg mRNA, Lipofectamine 2000, 24 h
quantity_kind: Intracellular immunogenicity of mRNA when using different Cap structures
Answers are plain numbers.

Answered examples (5):
>>> assay_result("CO[C@@H]1[C@H](O)[C@@H](COP(=O)(O)O[C@H]2[C@@H](OC)[C@H](n3ccc(N)nc3=O)O[C@@H]2COP(=O)(O)OP(=O)(O)OP(=O)([O-])OC[C@H]2O[C@@H](n3c[n+](C)c4c(=O)[nH]c(N)nc43)[C@H](O)[C@@H]2O)O[C@H]1n1ccc(N)nc1=O")
0.31
>>> assay_result("CO[C@@H]1[C@H](O)[C@@H](COP(=O)(O)O[C@H]2[C@@H](OC)[C@H](n3cnc4c(N)ncnc43)O[C@@H]2COP(=O)(O)OP(=O)(O)OP(=O)([O-])OC[C@H]2O[C@@H](n3c[n+](C)c4c(=O)[nH]c(N)nc43)[C@H](O)[C@@H]2O)O[C@H]1n1ccc(=O)[nH]c1=O")
0.23
>>> assay_result("COC1C(OP(=O)(O)OCC2OC(n3cnc4c(=O)[nH]c(N)nc43)C(O)C2O)C(COP(=O)(O)OP(=O)([O-])OP(=O)(O)OCC2OC(n3c[n+](C)c4c(=O)[nH]c(N)nc43)C(O)C2O)OC1n1cnc2c(N)ncnc21 (stereo not drawn)")
0.76
>>> assay_result("CO[C@@H]1[C@H](O)[C@@H](COP(=O)(O)O[C@H]2[C@@H](OC)[C@H](n3ccc(=O)[nH]c3=O)O[C@@H]2COP(=O)(O)OP(=O)(O)OP(=O)([O-])OC[C@H]2O[C@@H](n3c[n+](C)c4c(=O)[nH]c(N)nc43)[C@H](O)[C@@H]2OC)O[C@H]1n1ccc(N)nc1=O")
0.52
>>> assay_result("CO[C@@H]1[C@H](O)[C@@H](COP(=O)(O)O[C@H]2[C@@H](OC)[C@H](n3cnc4c(N)ncnc43)O[C@@H]2COP(=O)(O)OP(=O)(O)OP(=O)([O-])OC[C@H]2O[C@@H](n3c[n+](C)c4c(=O)[nH]c(N)nc43)[C@H](O)[C@@H]2OC)O[C@H]1n1cnc2c(N)ncnc21")
0.15

For each of the items listed, what is its Intracellular immunogenicity of mRNA when using different Cap structures?
1. CO[C@@H]1[C@H](O)[C@@H](COP(=O)(O)O[C@H]2[C@@H](OC)[C@H](n3cnc4c(=O)[nH]c(N)nc43)O[C@@H]2COP(=O)(O)OP(=O)(O)OP(=O)([O-])OC[C@H]2O[C@@H](n3c[n+](C)c4c(=O)[nH]c(N)nc43)[C@H](O)[C@@H]2O)O[C@H]1n1cnc2c(N)ncnc21
2. CO[C@@H]1[C@H](O)[C@@H](COP(=O)(O)O[C@H]2[C@@H](OC)[C@H](n3cnc4c(=O)[nH]c(N)nc43)O[C@@H]2COP(=O)(O)OP(=O)(O)OP(=O)([O-])OC[C@H]2O[C@@H](n3c[n+](C)c4c(=O)[nH]c(N)nc43)[C@H](O)[C@@H]2OC)O[C@H]1n1ccc(N)nc1=O

## Result
1. 0.38
2. 0.49

For each of the items listed, what is its Intracellular immunogenicity of mRNA when using different Cap structures?
1. CO[C@@H]1[C@H](O)[C@@H](COP(=O)(O)O[C@H]2[C@@H](OC)[C@H](n3cnc4c(=O)[nH]c(N)nc43)O[C@@H]2COP(=O)(O)OP(=O)(O)OP(=O)([O-])OC[C@H]2O[C@@H](n3c[n+](C)c4c(=O)[nH]c(N)nc43)[C@H](O)[C@@H]2O)O[C@H]1n1ccc(N)nc1=O
2. CO[C@@H]1[C@H](OP(=O)(O)OC[C@H]2O[C@@H](n3cnc4c(N)ncnc43)[C@H](OC)[C@@H]2O)[C@@H](COP(=O)(O)OP(=O)(O)OP(=O)([O-])OC[C@H]2O[C@@H](n3c[n+](C)c4c(=O)[nH]c(N)nc43)[C@H](O)[C@@H]2O)O[C@H]1n1ccc(N)nc1=O
3. CO[C@@H]1[C@H](O)[C@@H](COP(=O)(O)O[C@H]2[C@@H](OC)[C@H](n3cnc4c(N)ncnc43)O[C@@H]2COP(=O)(O)OP(=O)(O)OP(=O)([O-])OC[C@H]2O[C@@H](n3c[n+](C)c4c(=O)[nH]c(N)nc43)[C@H](O)[C@@H]2OC)O[C@H]1n1cnc2c(=O)[nH]c(N)nc21
4. CO[C@@H]1[C@H](O)[C@@H](COP(=O)(O)O[C@H]2[C@@H](OC)[C@H](n3cnc4c(N)ncnc43)O[C@@H]2COP(=O)(O)OP(=O)(O)OP(=O)([O-])OC[C@H]2O[C@@H](n3c[n+](C)c4c(=O)[nH]c(N)nc43)[C@H](O)[C@@H]2OC)O[C@H]1n1ccc(=O)[nH]c1=O
5. CO[C@H]1[C@@H](O)[C@H](n2c[n+](C)c3c(=O)[nH]c(N)nc32)O[C@@H]1COP(=O)(O)OP(=O)(O)OP(=O)(O)OC[C@H]1O[C@@H](n2cnc3c(=O)[nH]c(N)nc32)[C@H](O)[C@@H]1O

## Result
0.18
0.24
0.44
0.27
1

###

Assignment: determine reported Intracellular immunogenicity of mRNA when using different Cap structures for the given compounds.
system: TLR3, TLR7, TLR8 and RIG-1; experiment: Intracellular immunogenicity of capped mRNA by RNA immunoprecipitation and quantitative PCR; assay type: cell-based; conditions: relative to ARCA; Human-derived PBMC cells, 5 μg mRNA, Lipofectamine 2000, 24 h
Numbers only.

Answered examples (5):
>>> assay_result("CO[C@@H]1[C@H](O)[C@@H](COP(=O)(O)O[C@H]2[C@@H](OC)[C@H](n3cnc4c(=O)[nH]c(N)nc43)O[C@@H]2COP(=O)(O)OP(=O)(O)OP(=O)([O-])OC[C@H]2O[C@@H](n3c[n+](C)c4c(=O)[nH]c(N)nc43)[C@H](O)[C@@H]2OC)O[C@H]1n1cnc2c(N)ncnc21")
0.29
>>> assay_result("CO[C@@H]1[C@H](O)[C@@H](COP(=O)(O)O[C@H]2[C@@H](OC)[C@H](n3cnc4c(=O)[nH]c(N)nc43)O[C@@H]2COP(=O)(O)OP(=O)(O)OP(=O)([O-])OC[C@H]2O[C@@H](n3c[n+](C)c4c(=O)[nH]c(N)nc43)[C@H](O)[C@@H]2OC)O[C@H]1n1ccc(=O)[nH]c1=O")
0.31
>>> assay_result("CO[C@@H]1[C@H](O)[C@@H](COP(=O)(O)O[C@H]2[C@@H](OC)[C@H](n3cnc4c(=O)[nH]c(N)nc43)O[C@@H]2COP(=O)(O)OP(=O)(O)OP(=O)([O-])OC[C@H]2O[C@@H](n3c[n+](C)c4c(=O)[nH]c(N)nc43)[C@H](O)[C@@H]2O)O[C@H]1n1cnc2c(=O)[nH]c(N)nc21")
0.37
>>> assay_result("CO[C@@H]1[C@H](OP(=O)(O)OC[C@H]2O[C@@H](n3cnc4c(N)ncnc43)[C@H](OC)[C@@H]2O)[C@@H](COP(=O)(O)OP(=O)(O)OP(=O)([O-])OC[C@H]2O[C@@H](n3c[n+](C)c4c(=O)[nH]c(N)nc43)[C@H](O)[C@@H]2OC)O[C@H]1n1ccc(N)nc1=O")
0.41
>>> assay_result("CO[C@@H]1[C@H](OP(=O)(O)OC[C@H]2O[C@@H](n3cnc4c(=O)[nH]c(N)nc43)[C@H](OC)[C@@H]2O)[C@@H](COP(=O)(O)OP(=O)(O)OP(=O)([O-])OC[C@H]2O[C@@H](n3c[n+](C)c4c(=O)[nH]c(N)nc43)[C@H](O)[C@@H]2OC)O[C@H]1n1ccc(N)nc1=O")
0.26

Now look at this entry.
## Task Reported Intracellular immunogenicity of mRNA when using different Cap structures for CO[C@@H]1[C@H](O)[C@@H](COP(=O)(O)O[C@H]2[C@@H](OC)[C@H](n3ccc(=O)[nH]c3=O)O[C@@H]2COP(=O)(O)OP(=O)(O)OP(=O)([O-])OC[C@H]2O[C@@H](n3c[n+](C)c4c(=O)[nH]c(N)nc43)[C@H](O)[C@@H]2O)O[C@H]1n1ccc(N)nc1=O : what is it?
## Result 0.19

###

System: mRNA
Experiment: mRNA capping rate by RNase H cleavage and LC-MS
Assay type: biochemical
Settings: ratio of capped and uncapped mRNA
Method: The mRNA molecules with different Cap structures obtained in Example 1 were subjected to enzymatic cleavage, and the ratio of capped and uncapped mRNA molecules could be determined in a liquid chromatography-mass spectrometry analysis experiment. 1. Concentrate the beads using a magnet, aspirate the supernatant storage solution, and add an equal volume of 0.1 M NaOH +0.05 M NaCl; 2. […] 9. the mRNA capping rate of different Cap analogs synthesized was analyzed with LC-MS.
Assignment: determine reported mRNA capping rates when using different Cap structures for the given compounds.
Answers are plain numbers, in %.

>>> assay_result("CO[C@@H]1[C@H](O)[C@@H](COP(=O)(O)O[C@H]2[C@@H](OC)[C@H](n3cnc4c(=O)[nH]c(N)nc43)O[C@@H]2COP(=O)(O)OP(=O)(O)OP(=O)([O-])OC[C@H]2O[C@@H](n3c[n+](C)c4c(=O)[nH]c(N)nc43)[C@H](O)[C@@H]2OC)O[C@H]1n1ccc(N)nc1=O [Cap analog 26, 3-O-Me-m7G(5′)ppp(5′)(2′OMeG)p(2′OMeC)]")
94.97
>>> assay_result("CO[C@@H]1[C@H](O)[C@@H](COP(=O)(O)O[C@H]2[C@@H](OC)[C@H](n3cnc4c(=O)[nH]c(N)nc43)O[C@@H]2COP(=O)(O)OP(=O)(O)OP(=O)([O-])OC[C@H]2O[C@@H](n3c[n+](C)c4c(=O)[nH]c(N)nc43)[C@H](O)[C@@H]2O)O[C@H]1n1ccc(N)nc1=O [Cap analog 10, m7G(5′)ppp(5′)(2′OMeG)p(2′OMeC)]")
94.93

## Task Report mRNA capping rates when using different Cap structures for CO[C@@H]1[C@H](O)[C@@H](COP(=O)(O)O[C@H]2[C@@H](OC)[C@H](n3cnc4c(N)ncnc43)O[C@@H]2COP(=O)(O)OP(=O)(O)OP(=O)([O-])OC[C@H]2O[C@@H](n3c[n+](C)c4c(=O)[nH]c(N)nc43)[C@H](O)[C@@H]2O)O[C@H]1n1ccc(=O)[nH]c1=O [Cap analog 13, m7G(5′)ppp(5′)(2′OMeA)p(2′OMeU)] tested on mRNA.
## Result 94.77
